test system: sweet taste; test: Effect on sweet taste, intensity scale 0 to 10 (panelists); assay type: in vivo, human; settings: 20 ppm in sucrose in water (2.5% by weight); scale 0 to 10, control anchored as 5
outcome measure: Sweet, average intensity score

Item Nc1nc2nc[nH]c2c(=O)[nH]1 has what recorded Sweet, average intensity score?
4.80

Could you do the same for Nc1ncnc2nc[nH]c12 [Adenine, adenine, reference compound] , please?
5.76

Could you do the same for Nc1nc2c(ncn2[C@@H]2O[C@H](CO)[C@@H](O)[C@H]2O)c(=O)[nH]1 , please?
5.52

Could you do the same for Nc1nc2c(ncn2[C@@H]2O[C@H](COP(=O)(O)O)[C@@H](O)[C@H]2O)c(=O)[nH]1 [GMP, guanosine 5′-monophosphate, reference compound] , please?
5.42
